# Target of assay: rat mGlu5 (Rattus norvegicus)
# Sequence (P31424 21-1203): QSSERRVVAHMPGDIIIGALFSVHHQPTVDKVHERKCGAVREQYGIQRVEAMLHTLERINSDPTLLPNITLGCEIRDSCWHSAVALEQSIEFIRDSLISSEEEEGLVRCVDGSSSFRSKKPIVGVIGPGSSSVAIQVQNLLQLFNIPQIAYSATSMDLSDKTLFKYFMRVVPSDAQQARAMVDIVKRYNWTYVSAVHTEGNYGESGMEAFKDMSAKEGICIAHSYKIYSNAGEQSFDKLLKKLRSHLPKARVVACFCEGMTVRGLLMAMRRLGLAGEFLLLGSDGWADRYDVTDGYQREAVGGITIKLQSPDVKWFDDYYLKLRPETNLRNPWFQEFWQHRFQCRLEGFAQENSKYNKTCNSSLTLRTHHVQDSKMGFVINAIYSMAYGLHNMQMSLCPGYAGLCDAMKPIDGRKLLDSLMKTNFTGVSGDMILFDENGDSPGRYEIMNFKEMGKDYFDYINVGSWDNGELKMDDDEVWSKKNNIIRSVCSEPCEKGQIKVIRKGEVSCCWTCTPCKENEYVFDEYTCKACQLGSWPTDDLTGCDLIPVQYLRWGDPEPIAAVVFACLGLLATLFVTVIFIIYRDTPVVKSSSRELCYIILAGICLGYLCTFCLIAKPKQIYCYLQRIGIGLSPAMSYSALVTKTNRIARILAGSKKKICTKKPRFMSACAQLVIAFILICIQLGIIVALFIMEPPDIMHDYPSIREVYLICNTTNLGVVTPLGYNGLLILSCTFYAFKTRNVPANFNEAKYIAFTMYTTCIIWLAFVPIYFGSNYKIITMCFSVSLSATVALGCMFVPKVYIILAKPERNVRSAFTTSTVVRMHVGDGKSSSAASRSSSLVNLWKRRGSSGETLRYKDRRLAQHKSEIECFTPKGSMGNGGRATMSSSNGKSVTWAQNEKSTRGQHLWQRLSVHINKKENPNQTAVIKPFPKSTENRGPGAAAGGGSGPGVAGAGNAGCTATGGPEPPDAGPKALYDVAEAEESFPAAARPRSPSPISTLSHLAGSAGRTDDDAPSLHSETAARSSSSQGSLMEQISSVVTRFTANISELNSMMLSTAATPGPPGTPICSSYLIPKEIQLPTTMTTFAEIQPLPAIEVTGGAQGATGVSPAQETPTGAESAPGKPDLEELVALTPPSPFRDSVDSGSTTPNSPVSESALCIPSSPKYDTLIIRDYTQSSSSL
# Protocol notes: calcium fluorescence
pEC50: −log10 of the molar value.
Measured parameter: pEC50

Entry O=C(COCc1ccccc1)N1CCN(c2ncccn2)CC1 [10h] has what pEC50?
< 5.00

###

# Protocol notes: kinetic aqueous solubility screen
# Stated conditions: aqueous medium
Measured parameter: solubility kinetic

Entry N#Cc1ccccc1N1CCN(C(=O)COCc2ccccc2)CC1 [10e] has what solubility kinetic?
> 0.03 mg/mL
